Data origin: patent US20240287042A1

Molecular target: human wild-type (WT)-pendrin (Homo sapiens, UniProt O43511)
Construct: expressed in transfected cells
Sequence (O43511 1-780): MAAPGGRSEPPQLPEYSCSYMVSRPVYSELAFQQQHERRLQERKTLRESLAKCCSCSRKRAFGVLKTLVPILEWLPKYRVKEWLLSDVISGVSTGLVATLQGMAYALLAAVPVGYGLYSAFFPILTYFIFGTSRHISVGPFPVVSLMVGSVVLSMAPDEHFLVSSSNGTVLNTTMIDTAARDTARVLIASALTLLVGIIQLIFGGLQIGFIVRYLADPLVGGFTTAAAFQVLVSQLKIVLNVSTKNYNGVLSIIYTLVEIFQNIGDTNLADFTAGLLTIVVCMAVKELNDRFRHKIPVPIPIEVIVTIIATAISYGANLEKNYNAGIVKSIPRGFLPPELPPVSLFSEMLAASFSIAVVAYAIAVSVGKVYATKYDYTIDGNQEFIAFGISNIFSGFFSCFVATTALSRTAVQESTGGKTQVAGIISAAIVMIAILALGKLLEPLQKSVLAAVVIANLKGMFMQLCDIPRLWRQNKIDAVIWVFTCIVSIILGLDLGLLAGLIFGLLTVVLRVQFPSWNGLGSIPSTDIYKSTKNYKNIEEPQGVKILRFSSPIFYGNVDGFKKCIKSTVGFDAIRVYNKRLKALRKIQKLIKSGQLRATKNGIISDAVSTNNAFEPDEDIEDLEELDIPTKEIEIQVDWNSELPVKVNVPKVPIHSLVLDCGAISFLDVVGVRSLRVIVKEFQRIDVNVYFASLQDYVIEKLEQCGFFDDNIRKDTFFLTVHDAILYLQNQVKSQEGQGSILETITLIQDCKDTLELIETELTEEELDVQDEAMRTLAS
Experiment: Pendrin Cl−/I− exchange inhibitory activity, YFP fluorescence in CHO-K1 cells
Format: cell-based
Details: CHO-K1; compound concentration 10 μM
inhibition at 10 µM reference

Query :: Tell me the measured inhibition at 10 µM of Cc1ccc(C)c(N2CCN(C(=O)Cc3c(C(=O)O)[nH]c4ccc(Cl)cc34)CC2)c1 , please.
Result :: 67.9%

Query :: Likewise for C[C@@H]1CN(c2ccccc2)CCN1C(=O)Cc1c(C(=O)O)[nH]c2ccc(Cl)cc12 ?
Result :: < 20%

Query :: Likewise for CC1(C)CN(c2ccc(Cl)cc2)CCN1C(=O)Cc1c(C(=O)O)[nH]c2ccc(Cl)cc12 ?
Result :: < 20%

Shift focus to the following entry.
Query :: Tell me the measured inhibition at 10 µM of CCOc1ccccc1N1CCN(C(=O)Cc2c(C(=O)O)[nH]c3ccc(Cl)cc23)CC1 , please.
Result :: < 20%
